- TESTED_ON: T1, PUF4 RNA-binding domain (Saccharomyces cerevisiae, UniProt P25339 537-888)
- T1 sequence: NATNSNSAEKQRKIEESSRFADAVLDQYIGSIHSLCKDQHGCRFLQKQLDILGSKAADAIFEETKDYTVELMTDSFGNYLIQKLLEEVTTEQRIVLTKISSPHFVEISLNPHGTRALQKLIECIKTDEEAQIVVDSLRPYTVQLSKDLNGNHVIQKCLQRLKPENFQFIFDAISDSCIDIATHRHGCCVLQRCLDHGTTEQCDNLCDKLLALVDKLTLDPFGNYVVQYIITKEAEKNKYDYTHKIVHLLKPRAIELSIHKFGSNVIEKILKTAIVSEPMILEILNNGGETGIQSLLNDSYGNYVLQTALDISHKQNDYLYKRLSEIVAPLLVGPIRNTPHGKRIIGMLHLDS
- TEST_DETAILS: Mg; RNA-MaP; 20 mM Na-HEPES pH 7.4, 30 mM KOAc, 0.75 mM MgCl2, 0.1% Tween-20, 5% glycerol, 0.1 mg/mL BSA, 2 mM DTT; 25 C; 0.0125-409.6 nM protein
- CONDITION: tags: N-His6-TEV cleaved; C-SNAP kept, Cy3B-labelled; label: tethered on chip by stalled RNA polymerase
ENDPOINT_LABEL: Kd (nM)
Express your answer in nM, writing the number without its unit.

| BINDER | ENDPOINT_LABEL | UNIT_SPEC | OBSERVED_RESULT |
| --- | --- | --- | --- |
| UCUCUUUAUAUAUAUUACGUCUCUU (ssRNA) [Id_ii_S1_P4E.3_K4.2_C4.2_[C-2T]_[T-1A]_H4.2_A4.1_F4.1_T4.2_[G10C]_[T11G]] | Kd | nM | 21.9 |

Req: Report measured Kd; entry is Id_ii_S4_P4E.3_K4.2_C4.2_[C-2T]_[T-1G]_H4.2_A4.1_F4.1_T4.2_[G10T]_[T11C] (ssRNA) RNA: UUUGACAACUGAUCGUUCUUUCUUGUAUAUAUUAUCUUCUUUCUCGAUCAGUUGUCUUU
Resp: 3.99

Req: Report measured Kd; entry is UCUCUUUGUAAUCCUCUCUU (ssRNA) [Ic_S1_P3E.1_K3.1_C3.1_H3.1_A3.1_[T5A]_[A6T]_F3.1_[T7C]_[A8C]_T3.1]
Resp: 812
